Reported values of log10 TGI for individual entries
# Tested on: SW-620 colon
# EXPERIMENT_SUMMARY: NCI tumour cell line growth inhibition, 48 h
READOUT_LABEL: log10 TGI (log10 of the value in µM)

| MOLECULE | TEST_RESULT |
| --- | --- |
| O=C(/C=C/c1ccc(Cl)c(Cl)c1)c1cccc2ccccc12 | 0.49 |
| Oc1c(-c2cc(C(F)(F)F)[nH]n2)cc(Cl)c(OCc2ccc(Cl)cc2)c1-c1ccc(Cl)c(C(F)(F)F)c1 | 0.62 |
| CCC1C(c2ccccc2O)c2cc3c(cc2OC1N1CCOCC1)OCO3 (stereo not drawn) | 1.52 |
| COc1cc2c(cc1F)C(c1ccccc1Cl)=Nc1c(n[nH]c1C)N2 | 1.30 |
| N#CCN1C(=O)c2cc([N+](=O)[O-])cc3cc([N+](=O)[O-])cc(c23)C1=O | 1.31 |

====

# Test system: MDA-MB-435
# EXPERIMENT_SUMMARY: NCI tumour cell line growth inhibition, 48 h
READOUT_LABEL: TGI (µM)

| COMPOUND | LIMIT_SIGN | TEST_RESULT |
| --- | --- | --- |
| Fc1ccc(/C=N/n2c(-c3ccc(F)c(Cl)c3)n[nH]c2=S)cc1 | > | 100 |
| CCc1ccc2c(c1)N(CC(C)CN(C)C)c1ccccc1S2 (centres undefined) | = | 8.13 |
| COc1cc2c3c([nH]c2c(OC)c1OC)CCN(Cc1ccccc1)C3 | = | 35 |
| COc1ccc(NC(=O)C(=O)/C=C(\O)c2ccccc2)cc1 | > | 10 |
| O=C1C(OCCOc2ccccc2)=C(OCCOc2ccccc2)C(=O)c2ccccc21 | > | 100 |
| O=C(CN1N=C(c2ccc(F)cc2)CCC1=O)Nc1nc2ccccc2s1 | > | 100 |
| COc1cc(O)c2c(=O)c(OC)c(-c3ccc(OC)c(OC)c3)oc2c1 | > | 100 |
| C[C@@H]1O[C@@H](O[C@@H]2[C@@H](O)[C@H](OCCc3ccc(O)c(O)c3)O[C@H](CO)[C@H]2OC(=O)/C=C/c2ccc(O)c(O)c2)[C@H](O)[C@H](OC2OC[C@](O)(CO)[C@H]2O)[C@H]1O (some centres undefined) | = | 34.6 |
| O=C1c2c(Br)sc(Br)c2[C@@H](NC(=O)C(F)(F)F)C1Br (some centres undefined) | = | 5.27 |

====

List of TGI values.
# Tested on: NCI-H460 lung
# EXPERIMENT_SUMMARY: NCI tumour cell line growth inhibition, 48 h

| COMPOUND | TGI |
| --- | --- |
| CC1=C(CC2C(=O)N(c3ccccc3)S(=O)(=O)NC2C)C(=O)N(c2ccccc2)S(=O)(=O)N1C (stereo unspecified) | > 100 µM |
| O=C1c2c(Br)sc(Br)c2[C@@H](NC(=O)C(F)(F)F)C1Br (stereo partly specified) | 31 µM |
| O=C(Cc1nc2ccccc2o1)C(=O)Nc1cccc(C(F)(F)F)c1 | > 100 µM |
| c1cc(N2CCN(c3ccc(C4=NCCCN4)cc3)CC2)ccc1C1=NCCCN1 | > 100 µM |
| O=C1C=C(O)C(=Cc2c(O)cc(O)cc2O)C(O)=C1 | > 100 µM |
| COc1ccc(CNc2cc(=O)n(C)c(=O)[nH]2)cc1 | > 100 µM |
| CN1CCN(CCCCCN=c2cc3c(=O)n(CCCCCN4CCN(C)CC4)c(=O)c4c(NCCCCCN5CCN(C)CC5)cc5c(O)n(CCCCCN6CCN(C)CC6)c(=O)c2c5c4-3)CC1 | 10.2 µM |
| Cc1ccc(NC(=O)C(=O)C(C(=O)/C=C/c2ccccc2)C2OC(=O)c3ccccc32)c(C)c1 (stereo unspecified) | > 100 µM |
| O=C(NCCNCCO)c1cccc2ccc(-c3ccccc3)nc12 | 11.6 µM |
| O=C1Cc2c([nH]c3ccc(C(=O)O)cc23)-c2ccccc2N1 | > 100 µM |
| O=C(/C=C/c1ccc(Cl)c(Cl)c1)c1cccc2ccccc12 | 19.3 µM |
